# system_under_test: human M4 muscarinic acetylcholine receptor (Homo sapiens)
# Construct: expressed in transfected cells; host or cells: CHO-K1
# Sequence (P08173 1-479): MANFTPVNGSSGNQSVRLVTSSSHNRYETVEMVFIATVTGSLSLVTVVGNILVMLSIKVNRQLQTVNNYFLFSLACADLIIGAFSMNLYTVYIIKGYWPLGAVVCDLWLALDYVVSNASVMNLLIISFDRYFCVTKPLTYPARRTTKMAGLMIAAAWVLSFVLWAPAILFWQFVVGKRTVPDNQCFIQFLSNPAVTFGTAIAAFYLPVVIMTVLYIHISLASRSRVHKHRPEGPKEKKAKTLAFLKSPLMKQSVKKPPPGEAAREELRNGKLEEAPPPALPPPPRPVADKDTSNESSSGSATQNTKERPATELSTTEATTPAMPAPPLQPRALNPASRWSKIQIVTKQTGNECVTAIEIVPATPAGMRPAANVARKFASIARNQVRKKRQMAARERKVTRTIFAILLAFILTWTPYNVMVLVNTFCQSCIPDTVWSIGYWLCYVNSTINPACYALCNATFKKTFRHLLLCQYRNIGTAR
# measurement_notes: human FLIPR-based M4 PAM assay (CHO-K1 cells with human M4 receptor and Gαqi5, calcium dye fluorescence, acetylcholine at 20% of maximum response)
# Format: cell-based
# stated_conditions: inflection point (IP) of 4 parameter logistic dose response curve, human M4 receptor + Gαqi5, FLIPR Tetra
Known pEC50 of a selection of compounds
Lab note — pEC50 values are minus log10 of concentrations in M.

Cc1cc2c(nc1N1CCC(Oc3ccc4c(c3)COC4)CC1)C1CNCCN1C2=O (single isomer, unassigned) [Example 83A]    6.99
COc1ccc(OC2CCN(c3nc4cn(C)nc4cc3C)CC2)cn1 [Example 64]    6.62
Cc1cc2c(nc1N1CCC(Oc3ccc4c(c3)COC4)CC1)C1COCCN1C2=O (single isomer, unassigned) [Example 81A]    7.54
COc1ccc(OC2CCN(c3nc4cnn(C)c4cc3C)CC2)cn1 [Example 66]    5.86
COc1ccc(OC2CCN(c3nc4c(cc3C)CN(S(C)(=O)=O)C4)CC2)cn1 [Example 59]    6.90

For record COc1ccc(OC2CCN(c3nc4c(cc3C)CN(C(C)=O)C4)CC2)cn1 [Example 40] the listed pEC50 is 6.79

Value of measured pEC50 for the entry Cc1cn2c(=O)n(C)nc2nc1N1CCC(Oc2ccccc2)CC1 [Example 19] : 7.27

Notebook: COc1ccc(OC2CCN(c3nc4[nH][nH]c(=O)c4cc3C)CC2)cn1 [Example 23] , pEC50 read as 7.17

What the record says about Cc1cc2c(=O)[nH]n(C)c2nc1N1CCC(Oc2ccc3cn[nH]c3c2)CC1 [Example 27] : pEC50 is 7.15

* * *

# system_under_test: human M4 muscarinic acetylcholine receptor (Homo sapiens, UniProt P08173)
# measurement_notes: human FLIPR-based M4 PAM assay (CHO-K1 cells with human M4 receptor and Gαqi5, calcium dye fluorescence, acetylcholine at 20% of maximum response)
# stated_conditions: inflection point (IP) of 4 parameter logistic dose response curve, human M4 receptor + Gαqi5, FLIPR Tetra
quantity_kind: EC50 (nM)
Respond with the bare value in nM.

Cc1cn2c(=O)n(C)nc2nc1N1CC[C@@H](Oc2ccc3c(cnn3C)c2)[C@@H](F)C1 [Example 10]    81
COc1ccc(OC2CCN(c3nc4c(cc3C)S(=O)(=O)NC4)CC2)cn1 [Example 75]    165
Cc1cn2c(=O)[nH]nc2nc1N1CCC(Oc2cccc(C#N)c2)CC1 [Example 16]    35

Record summary for COc1ccc(OC2CCN(c3nc4c(C)n[nH]c4cc3C)CC2)cn1 [Example 65] : reported EC50 = 1650

The reported EC50 of the compound Cc1cn2c(=O)[nH]nc2nc1N1CC[C@@H](Oc2ccc3c(cnn3C)c2)[C@H](F)C1 [Example 7] was 138

* * *

# system_under_test: human M4 muscarinic acetylcholine receptor (Homo sapiens, UniProt P08173)
# Sequence (P08173 1-479): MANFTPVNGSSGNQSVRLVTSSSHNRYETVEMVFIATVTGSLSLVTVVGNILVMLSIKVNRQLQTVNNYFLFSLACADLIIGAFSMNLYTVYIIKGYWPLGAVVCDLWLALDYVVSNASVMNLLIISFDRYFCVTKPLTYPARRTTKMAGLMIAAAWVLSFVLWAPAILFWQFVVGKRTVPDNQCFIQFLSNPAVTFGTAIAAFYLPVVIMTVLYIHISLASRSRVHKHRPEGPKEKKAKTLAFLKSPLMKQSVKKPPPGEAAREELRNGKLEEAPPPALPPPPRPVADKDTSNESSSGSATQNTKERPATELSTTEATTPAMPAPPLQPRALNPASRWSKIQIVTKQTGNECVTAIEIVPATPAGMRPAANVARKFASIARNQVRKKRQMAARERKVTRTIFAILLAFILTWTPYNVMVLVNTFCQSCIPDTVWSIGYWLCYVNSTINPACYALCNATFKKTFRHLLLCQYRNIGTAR
# measurement_notes: human FLIPR-based M4 PAM assay (CHO-K1 cells with human M4 receptor and Gαqi5, calcium dye fluorescence, acetylcholine at 20% of maximum response)
# stated_conditions: inflection point (IP) of 4 parameter logistic dose response curve, human M4 receptor + Gαqi5, FLIPR Tetra
quantity_kind: log10 of EC50 (log10 of the value in nM)
Could you please treat all values as log10 of EC50 in nM?

COc1ccc(OC2CCN(c3nc4c(cc3C)CN(C(=O)C3CCO3)C4)CC2)cn1 (stereo not drawn) [Example 48]    2.22

Case COc1ccc(OC2CCN(c3nc4c(cc3C)CN(C(=O)C3(C)COC3)C4)CC2)cn1 [Example 42] , human M4 muscarinic acetylcholine receptor (Homo sapiens, UniProt P08173), log10 of EC50 recorded as 2.30

Lab note: compound Cc1cc2c(=O)[nH]n(C)c2nc1N1CCC(Oc2cccc(C#N)c2)CC1 [Example 26] tested on human M4 muscarinic acetylcholine receptor (Homo sapiens, UniProt P08173); recorded log10 of EC50 was 2.32

Form field log10 of EC50 for item Cc1cn2c(=O)[nH]nc2nc1N1CCC(Oc2ccccc2)CC1 [Example 15] on human M4 muscarinic acetylcholine receptor (Homo sapiens, UniProt P08173): 1.74

Reading of log10 of EC50 for COc1ccc(OC2CCN(c3nc4c(cc3C)CN(C(=O)[C@H](C)O)C4)CC2)cn1 [Example 51] with human M4 muscarinic acetylcholine receptor (Homo sapiens, UniProt P08173): 2.04

Bench note, human M4 muscarinic acetylcholine receptor (Homo sapiens, UniProt P08173): Cc1cn2c(=O)n(CCO)nc2nc1N1CCC(Oc2ccc3c(c2)COC3)CC1 [Example 13] , log10 of EC50 reads 1.67

The observed log10 of EC50 for Cc1cc2c(nc1N1CCC(Oc3ccccc3)CC1)CNS2(=O)=O [Example 77] when tested with human M4 muscarinic acetylcholine receptor (Homo sapiens, UniProt P08173) stands at 2.44

For COc1ccc(OC2CCN(c3nc4nccn4cc3C)CC2)cn1 [Example 67] on human M4 muscarinic acetylcholine receptor (Homo sapiens, UniProt P08173), measured log10 of EC50 was 2.88

Observed log10 of EC50, human M4 muscarinic acetylcholine receptor (Homo sapiens, UniProt P08173), COc1ccc(OC2CCN(c3nc4c(cc3C)CN(CCO)C4)CC2)cn1 [Example 37] : 2.12

* * *

# system_under_test: human M4 muscarinic acetylcholine receptor (Homo sapiens)
# measurement_notes: human FLIPR-based M4 PAM assay (CHO-K1 cells with human M4 receptor and Gαqi5, calcium dye fluorescence, acetylcholine at 20% of maximum response)
# stated_conditions: inflection point (IP) of 4 parameter logistic dose response curve, human M4 receptor + Gαqi5, FLIPR Tetra
quantity_kind: log10(EC50) (log10 of the value in nM)
All values: base-10 log of EC50 in nM.

Some solved entries appear below for comparison.
COC(=O)N1Cc2cc(C)c(N3CCC(Oc4ccccc4)CC3)nc2C1 [Example 62]    2.06
COc1ccc(OC2CCN(c3nc4n[nH]c(=O)n4cc3C)CC2)cn1 [Example 4]    1.74
COc1ccc(OC2CCN(c3nc4c(cc3C)CN(C(=O)C3CN(C)C3)C4)CC2)cn1 [Example 52]    2.66
COc1ccc(OC2CCN(c3nc4c(cc3C)C(O)CC4)CC2)cn1 (single isomer, unassigned) [Example 71B]    3.02

Then there is this molecule:
Recorded result, COc1ccc(OC2CCN(c3nc4c(cc3C)C(=O)C(C)(C)C4)CC2)cn1 [Example 73] , log10(EC50): 2.47

* * *

# system_under_test: human M4 muscarinic acetylcholine receptor (Homo sapiens, UniProt P08173)
# measurement_notes: human FLIPR-based M4 PAM assay (CHO-K1 cells with human M4 receptor and Gαqi5, calcium dye fluorescence, acetylcholine at 20% of maximum response)
# stated_conditions: inflection point (IP) of 4 parameter logistic dose response curve, human M4 receptor + Gαqi5, FLIPR Tetra
Recorded EC50 values for a group of compounds are listed next.
Please answer in the form of a number followed by its unit of measurement.

Worked set:
COc1ccc(OC2CCN(c3nc4c(cnn4C)cc3C)CC2)cn1    397 nM
Cc1cn2c(=O)[nH]nc2nc1N1CCC(Oc2ccc3c(c2)COC3)CC1    20 nM

Record for COc1ccc(OC2CCN(c3nc4c(cc3C)CN(C(=O)C3(C)CCCC3)C4)CC2)cn1 under target or system human M4 muscarinic acetylcholine receptor (Homo sapiens, UniProt P08173): EC50 reported as 489 nM

Measured on human M4 muscarinic acetylcholine receptor (Homo sapiens, UniProt P08173), COc1ccc(OC2CCN(c3nc4[nH]ncc4cc3C)CC2)cn1 has a documented EC50 of 368 nM

Readout EC50 for COc1ccc(OC2CCN(c3nc4c(cc3C)CCC4)CC2)cn1 , test system human M4 muscarinic acetylcholine receptor (Homo sapiens, UniProt P08173), was 1510 nM

// EC50 (human M4 muscarinic acetylcholine receptor (Homo sapiens, UniProt P08173)) for COc1ccc(OC2CCN(c3nc4c(cc3C)C(=O)OC4(C)C)CC2)cn1 = 856 nM

Item COc1ccc(OC2CCN(c3nc4c(cc3C)CN(C(=O)C3CCCC3)C4)CC2)cn1 was tested on human M4 muscarinic acetylcholine receptor (Homo sapiens, UniProt P08173); the reported EC50 is 306 nM

Sample Cc1cc2c(nc1N1CCC(Oc3ccccc3)CC1)CNC2 , system: human M4 muscarinic acetylcholine receptor (Homo sapiens, UniProt P08173). Its EC50 is 76 nM

EC50 on human M4 muscarinic acetylcholine receptor (Homo sapiens, UniProt P08173) for COc1ccc(OC2CCN(c3nc4c(cc3C)C(=O)N3CCOCC43)CC2)cn1 (stereo not drawn) is 92 nM
